Measured IC50 (UniProtKB P23975)
Sequence (P23975 whole entry): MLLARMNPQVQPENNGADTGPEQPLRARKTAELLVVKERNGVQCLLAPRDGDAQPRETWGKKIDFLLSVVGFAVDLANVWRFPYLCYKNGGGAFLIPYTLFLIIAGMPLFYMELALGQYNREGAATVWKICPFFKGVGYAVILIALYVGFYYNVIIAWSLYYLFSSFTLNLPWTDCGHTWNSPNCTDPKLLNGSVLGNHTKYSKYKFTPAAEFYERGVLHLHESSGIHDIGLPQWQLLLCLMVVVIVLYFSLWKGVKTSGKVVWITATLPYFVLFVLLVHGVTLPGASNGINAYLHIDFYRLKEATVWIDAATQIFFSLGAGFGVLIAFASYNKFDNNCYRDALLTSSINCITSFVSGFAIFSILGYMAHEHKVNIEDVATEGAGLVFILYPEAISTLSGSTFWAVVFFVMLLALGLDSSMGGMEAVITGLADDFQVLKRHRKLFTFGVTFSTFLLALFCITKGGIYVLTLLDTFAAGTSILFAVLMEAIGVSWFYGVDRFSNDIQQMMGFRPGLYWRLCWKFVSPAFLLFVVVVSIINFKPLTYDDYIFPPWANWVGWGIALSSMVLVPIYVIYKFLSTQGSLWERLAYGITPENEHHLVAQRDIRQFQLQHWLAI
measuredParameter: IC50 (µM)

Here's what some known entries look like.
O=S1(=O)N(CCC2CNCCO2)c2ccc(F)cc2N1c1ccccc1F (configuration not stated); 0.12
O=S1(=O)N(CC2CNCCO2)c2ccccc2N1c1ccccc1 (racemic); 0.147
O=S1(=O)N(CC[C@@H]2CNCCO2)c2ccccc2N1c1ccccc1F; 0.015
O=S1(=O)N(CCC2CNCCO2)c2c(F)cccc2N1c1ccccc1F (configuration not stated); 0.022
O=S1(=O)N(CCC2CCCNC2)c2ccccc2N1c1ccccc1 (racemic); 0.054

1: O=S1(=O)N(CCC2CNCCO2)c2cc(F)ccc2N1c1ccccc1F (configuration not stated)
2: O=S1(=O)N(CCC2CNCCO2)c2cccc(F)c2N1c1ccccc1F (configuration not stated)
Could you kindly indicate whether 1 or 2 has the higher IC50 value? The response must carry the label of the picked entry. 1
(1: 0.014 µM, 2: 0.007 µM)
